Test: Selectivity index, ratio of IC50 for mouse BALB/3T3 cells to IC50 for human MCF7 cells
Type: toxicity
Conditions: BALB/3T3 cells versus MCF7 cells, read-out: Ratio IC50
READOUT_NAME: selectivity ratio
Format: numeric value only, no unit, no commentary.

Find the recorded selectivity ratio belonging to "COc1cc(CN[C@H]2CCc3cc(OC)c(OC)c(OC)c3-c3ccc(SC)c(=O)cc32)ccc1O" and report it. 46.9

====

Test: Selectivity index, ratio of IC50 for mouse BALB/3T3 cells to IC50 for human LoVo/DX cells
Assay type: toxicity
Settings: BALB/3T3 cells versus LoVo/DX cells, read-out: Ratio IC50
READOUT_NAME: selectivity ratio
Format: numeric value only, no unit, no commentary.

Find the recorded selectivity ratio belonging to "COc1cc(CN[C@H]2CCc3cc(OC)c(OC)c(OC)c3-c3ccc(SC)c(=O)cc32)ccc1O" and report it. 4.5
